Exercise: state measured TGI for each of the compounds provided.
- Tested on: A549 NSCLC
- assay.text: NCI tumour cell line growth inhibition, 48 h

Task: Quick one: TGI for `NC(CCl)=NCC12CC3CC(CC(C3)C1)C2` ?
Result: 15.7 µM

Task: `O=CC1=CCCN(CCc2c[nH]c3ccccc23)C1` ?
Result: > 393 µM

Task: What about this compound? `COc1ccc(/C(=N/OCCCC(=O)O)c2cccs2)cc1`
Result: > 100 µM

====

- Tested on: HOP-62 NSCLC
- assay.text: NCI tumour cell line growth inhibition, 48 h
Would you mind telling me the reported GI50 of each entry?

Task: Given `CC1(C)CC[C@]2(C(=O)NCCNCCN)CC[C@]3(C)C(=CC[C@@H]4[C@@]5(C)CCC(=O)C(C)(C)[C@@H]5CC[C@]43C)[C@@H]2C1` , state its recorded GI50.
Result: 2.05 µM

Task: # iterate: `C=C(C)[C@@H]1C/C=C(/COC(C)=O)CC[C@H]2O[C@@]2(C)CC/C=C(\C)CC1`
Result: > 100 µM

Task: Request: CO[C@H]1/C=C/O[C@@]2(C)Oc3c(C)c(O)c4c(O)c(c(/C=N/N5C(C)CN(Cc6ccc(C#N)cc6)CC5C)c(O)c4c3C2=O)NC(=O)/C(C)=C\C=C\[C@H](C)[C@H](O)[C@@H](C)[C@@H](O)[C@@H](C)[C@H](OC(C)=O)[C@@H]1C (stereo partly specified)
Result: 9.76 µM

Task: Same for `CC(=O)CCc1ccc(Oc2c3ccccc3nc3occc23)cc1`
Result: 20.1 µM

Task: Now give it for `COC1=CC(c2ccc[nH]2)=N/C1=C\c1[nH]c(C)c(CC(=O)NCc2ccccc2)c1C` too.
Result: 1.51 µM

Task: Query `Cc1cc(C)c([I+]c2c(C)cc(C)cc2C)c(C)c1` next
Result: 0.841 µM

====

- Test system: PC-3 prostate
- assay.text: NCI tumour cell line growth inhibition, 48 h
reported.metric: TGI

Task: Item `CCN(CC)CCOCCOCC1(c2ccc(Cl)c(Cl)c2)CCCCC1` has what recorded TGI?
Result: 23.3 µM

Task: Let us now turn to `CCOC(=O)C(=CNc1ccc(S(N)(=O)=O)cc1)C(=O)OCC`
Result: > 100 µM

Task: // repeat for `CC1(C)CC[C@]2(C(=O)NCCNCCN)CC[C@]3(C)C(=CC[C@@H]4[C@@]5(C)CCC(=O)C(C)(C)[C@@H]5CC[C@]43C)[C@@H]2C1` and report
Result: 3.61 µM

Task: Thanks! And `COC(=O)[C@@H](C)C[C@H](Cc1ccc(F)cc1)NC(=O)c1csc([C@@H](C[C@H](C(C)C)N(C)C(=O)[C@@H](NC(=O)[C@H]2CCCCN2C)C2CC2)OC(C)=O)n1` ?
Result: > 25 µM

Task: Try this compound too: `N[C@@H](Cc1c[nH]c2ccccc12)C(=O)NC1CCN(Cc2c[nH]c3ccc(Cl)cc23)CC1`
Result: 19.9 µM

Task: Input CCCC(=O)Nc1cc(/C=C/C(=O)N2CC(CCl)c3ccc([N+](=O)[O-])cc32)n(C)c1 (centres undefined)
Result: > 100 µM

Task: Field entry: `CC(=O)OCCCCn1nncc1Cn1ccc(=O)n(Cc2cnnn2CCCCOC(C)=O)c1=O`
Result: > 100 µM

Task: What do we get for `O=C(O)c1nn(-c2ccc(Cl)cc2)c2c1C(=O)c1ccccc1C2=O` ?
Result: > 100 µM

Task: Then what about the compound C/C(=N\N)C(CN1CCOCC1)C(c1ccccc1)c1c(O)c2ccccc2oc1=O (centres undefined) ?
Result: > 100 µM

====

- Tested on: UACC-62 melanoma
- assay.text: NCI tumour cell line growth inhibition, 48 h
Field: TGI. Provide a value for each of the compounds that follow.

Task: Can you look up the measured TGI of CCCCN(C)CC(C(C)=O)C(c1ccccc1)c1c(O)c2ccccc2oc1=O (stereo not given) for me?
Result: > 100 µM

Task: Try this compound next: `Cc1ccc(N2C=Nn3c(nc4sc5c(c4c3=O)CCCC5)C2)cc1`
Result: > 100 µM

Task: Next entry: `CC(=O)N(N=O)c1ccc(N(N=O)C(C)=O)cc1`
Result: > 100 µM

Task: // next record `CC1(C)C(CBr)=[N+]([O-])C(C)(C)N1O`
Result: > 10 µM

Task: Try the compound O=C1CC=C2C3CC4N(CCC45c4ccccc4N1C25)C/C3=C\CO (stereo not given)
Result: > 100 µM

====

- Test system: EKVX NSCLC
- assay.text: NCI tumour cell line growth inhibition, 48 h
reported.metric: TGI (µM)
I only need the number, in µM, no unit after it.

Task: Would you kindly share the measured TGI for Cn1cnc(SC2=CC(=O)C=C3S[C@H]4C[C@@]23c2c(c(O)c3c5c2=NCCC=5C=N3)N4)c1CC(N)C(=O)O (stereo not given in full) ?
Result: 34.3

Task: Queued: `CC(=O)OC(OC(C)=O)c1c2ccccc2cc2ccccc12`
Result: 50.4

====

- System: SK-OV-3 ovarian
- assay.text: NCI tumour cell line growth inhibition, 48 h
reported.metric: TGI (µM)
A number alone suffices; assume µM.

Task: Form field: reported TGI of OC(c1cc2ccccc2[nH]1)C(O)(c1cc2ccccc2[nH]1)c1cc2ccccc2[nH]1 (stereo unspecified)
Result: 79.1

Task: Another molecule to look at: `CC(C)(C)c1ccc(NS(=O)(=O)c2ccc(N)cc2)cc1`
Result: 12.5

Task: Now consider Cn1cnc(SC2=CC(=O)C=C3S[C@H]4C[C@@]23c2c(c(O)c3c5c2=NCCC=5C=N3)N4)c1CC(N)C(=O)O (stereo partly specified) and answer again.
Result: 36.6

====

What TGI was measured for each of the following?
- Test system: SF-268 CNS
- assay.text: NCI tumour cell line growth inhibition, 48 h

Task: Bench note: what TGI did `Oc1ccc(Br)cc1C=NC1CCCCC1` show?
Result: > 100 µM

Task: COc1cccc(C2SC(C)C(=O)N2NC(=O)C(O)c2ccccc2)c1 (stereo not drawn) , same question.
Result: > 100 µM

Task: Consider next the compound `NC(=O)c1ccc(I)c([N+](=O)[O-])c1` in the same way.
Result: > 100 µM

====

- Tested on: NCI-H226 lung
- assay.text: NCI tumour cell line growth inhibition, 48 h
reported.metric: GI50

Task: # get_value(readout='GI50', item= CO[C@H]1/C=C/O[C@@]2(C)Oc3c(C)c(O)c4c(O)c(c(/C=N/N5C(C)CN(Cc6ccc(C#N)cc6)CC5C)c(O)c4c3C2=O)NC(=O)/C(C)=C\C=C\[C@H](C)[C@H](O)[C@@H](C)[C@@H](O)[C@@H](C)[C@H](OC(C)=O)[C@@H]1C (stereo not given in full) )
Result: 6.06 µM

Task: Moving on to `COc1nc2c(c(=O)n1C)CN(c1ccccc1)C(=O)CN2C`
Result: 83.8 µM

Task: Check `CC[C@H](C)[C@H](NC(=O)c1ncccn1)C(=O)N(C)[C@H](C[C@@H](OC(C)=O)c1nc(C(=O)N[C@@H](Cc2ccccc2)C[C@H](C)C(=O)OC)cs1)C(C)C` too.
Result: 5.45 µM

Task: And then `Cc1cc(C)c([I+]c2c(C)cc(C)cc2C)c(C)c1` , what is it?
Result: 0.505 µM

Task: Continue with `COc1ccc(OC)c(-c2cc(-c3ccc(Cl)cc3)nn2-c2ccccc2)c1`
Result: 33 µM

Task: Can you check `C=C(C)[C@@H]1C/C=C(/COC(C)=O)CC[C@H]2O[C@@]2(C)CC/C=C(\C)CC1` next?
Result: > 100 µM

Task: Likewise for `COc1cc(-c2n/c(=C\c3c(O)[nH]c4ccccc34)cc3c2=Nc2ccccc2-3)ccc1F` ?
Result: 19.9 µM

Task: Now give it for `COc1cc(/C=C2\C(=O)Nc3ccc(Cl)cc32)cc(OC)c1OC` too.
Result: 51.3 µM

Task: `CC(=O)CCc1ccc(Oc2c3ccccc3nc3occc23)cc1` , same question.
Result: 15.5 µM

Task: Moving on to the next molecule: `O=C(N/N=C\c1ccc(N(CCCl)CCCl)cc1)c1cccnc1`
Result: 2.13 µM

====

- Test system: M14 melanoma
- assay.text: NCI tumour cell line growth inhibition, 48 h
reported.metric: TGI (µM)
Respond numerically; units are µM and should not be typed.

Task: Using the record for `NC(CCl)=NCC12CC3CC(CC(C3)C1)C2` , report its TGI.
Result: 4.39

Task: Consider next the molecule COc1nc2ccc(Cl)c(C(O)c3ccccc3)c2nc1OC (centres undefined) in the same way.
Result: 38.8

Task: Then what about the molecule `COc1ccc2c(c1)/C(=C\c1c(-c3ccccc3)nc3sccn13)C(=O)N2` ?
Result: 18.4

Task: What would you report for `CCCC[C@H](CCc1ccccc1)N(C(=O)OC)N1CCC[C@H]1COC` ?
Result: 82.6

Task: Also Cc1ccccc1SC(/C=C/NNC1=NC(c2ccccc2)C(c2ccccc2)=NN1)c1ccccc1 (centres undefined) ?
Result: 87.6

Task: `FC(F)(F)c1cccc(Oc2ccc(Nc3ncnc4ccc(OCCCN5CCOCC5)cc34)cc2Cl)c1` , same question.
Result: 3.51
